Entry source: ChEMBL document CHEMBL3632541

Tested on: Leishmania major
Experiment: Antileishmanial activity against promastigote form of Leishmania major MHOM/IL/81/BNI after 96 hrs by spectrofluorimetric micromethod
Type: functional, organism-based
pIC50: −log10 of the molar value.
The entries below are paired with their reported pIC50.
observable: pIC50

> print(dat)
                             chemical.smiles  lt.gt.eq  recorded.value
 1       CN(C)CCNc1nccn2c(I)c(-c3ccccc3)nc12         =            4.62
 2   N=C(N)c1ccc(OCCCCCOc2ccc(C(=N)N)cc2)cc1         =            5.34
 3   Fc1ccc(-c2nc3c(NCCN4CCOCC4)nccn3c2I)cc1         =            5.55
 4    CN(C)CCNc1nccn2c(I)c(-c3ccc(F)cc3)nc12         =            4.61
 5  O=[N+]([O-])c1ccc(-c2c(-c3ccccc3)nc3cnccn23)cc1         =            4.56
 6    Ic1c(-c2ccccc2)nc2c(NCCN3CCOCC3)nccn12         =            4.97
 7       CN(C)c1nccn2c(I)c(-c3ccc(F)cc3)nc12         <            4.00
 8         c1ccc(-c2nc3cnccn3c2-c2ccncc2)cc1         =            4.70
 9  CN(C)c1nccn2c(-c3ccncc3)c(-c3ccc(F)cc3)nc12         =            5.19
10  Clc1cc(Cl)cc(-c2c(-c3ccccc3)nc3cnccn23)c1         =            4.99
11  CN(C)CCNc1nccn2c(-c3ccncc3)c(-c3ccccc3)nc12         =            4.16
12  CN(C)CCNc1nccn2c(-c3ccncc3)c(-c3ccc(F)cc3)nc12         =            4.45
13     Clc1cccc(-c2c(-c3ccccc3)nc3cnccn23)c1         =            4.84
14  c1ccc(-c2nc3c(NCCN4CCOCC4)nccn3c2-c2ccncc2)cc1         =            4.63
15  CN(C)c1nccn2c(-c3ccncc3)c(-c3ccccc3)nc12         =            4.50
16  Fc1ccc(-c2nc3c(NCCN4CCOCC4)nccn3c2-c2ccncc2)cc1         =            4.78
17         c1ccc(-c2nc3cnccn3c2-c2ccccc2)cc1         =            4.58
18  CCOC(=O)c1ccc(-c2c(-c3ccccc3)nc3cnccn23)cc1         =            4.76
19     COc1ccc(-c2c(-c3ccccc3)nc3cnccn23)cc1         =            4.76
20          CN(C)c1nccn2c(I)c(-c3ccccc3)nc12         =            5.17

* * *

Experiment: Cytotoxicity against human H460 cells assessed as growth inhibition after 48 hrs by SRB assay method
Assay type: cell-based, NCI-H460
observable: GI50 at 48 h

> print(dat)
                                    compound  recorded.value
 1  Fc1ccc(-c2nc3c(NCCN4CCOCC4)nccn3c2-c2ccncc2)cc1        20 µg/mL
 2  CN(C)CCNc1nccn2c(-c3ccncc3)c(-c3ccc(F)cc3)nc12        34 µg/mL
 3    Ic1c(-c2ccccc2)nc2c(NCCN3CCOCC3)nccn12       121 µg/mL
 4  CN(C)CCNc1nccn2c(-c3ccncc3)c(-c3ccccc3)nc12        40 µg/mL
 5       CN(C)c1nccn2c(I)c(-c3ccc(F)cc3)nc12        25 µg/mL
 6  CN(C)c1nccn2c(-c3ccncc3)c(-c3ccccc3)nc12        70 µg/mL
 7  CN(C)c1nccn2c(-c3ccncc3)c(-c3ccc(F)cc3)nc12     > 125 µg/mL
 8    CN(C)CCNc1nccn2c(I)c(-c3ccc(F)cc3)nc12         9 µg/mL
 9       CN(C)CCNc1nccn2c(I)c(-c3ccccc3)nc12        13 µg/mL
10    O=c1[nH]cc(F)c(=O)[nH]1 [FLUOROURACIL]       0.3 µg/mL
11   Fc1ccc(-c2nc3c(NCCN4CCOCC4)nccn3c2I)cc1     > 125 µg/mL
12          CN(C)c1nccn2c(I)c(-c3ccccc3)nc12        47 µg/mL
